Molecular target: UniProt:P21836
Sequence (P21836 whole entry): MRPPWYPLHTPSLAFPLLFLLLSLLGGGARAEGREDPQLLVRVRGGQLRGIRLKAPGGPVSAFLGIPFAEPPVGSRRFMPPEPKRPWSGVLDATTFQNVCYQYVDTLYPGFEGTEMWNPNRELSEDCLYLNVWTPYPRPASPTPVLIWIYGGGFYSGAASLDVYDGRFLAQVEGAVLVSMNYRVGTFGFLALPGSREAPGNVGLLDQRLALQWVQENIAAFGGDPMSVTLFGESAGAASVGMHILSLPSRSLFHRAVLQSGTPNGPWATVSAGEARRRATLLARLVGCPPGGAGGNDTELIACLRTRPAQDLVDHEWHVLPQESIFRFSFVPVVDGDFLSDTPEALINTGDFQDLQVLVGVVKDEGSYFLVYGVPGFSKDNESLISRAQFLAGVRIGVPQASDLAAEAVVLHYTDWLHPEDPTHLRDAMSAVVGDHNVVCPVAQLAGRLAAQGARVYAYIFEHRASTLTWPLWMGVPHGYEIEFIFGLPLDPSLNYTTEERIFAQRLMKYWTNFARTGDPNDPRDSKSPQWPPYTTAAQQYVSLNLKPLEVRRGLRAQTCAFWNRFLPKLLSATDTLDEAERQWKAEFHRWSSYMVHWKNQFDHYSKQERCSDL
Property Name: IC50
Hi, when you answer, please include the unit after the number. Thanks!

Q: What is its IC50 for UniProt:P21836? Entry: C#CCNCc1ccc2c(c1)ncn2-c1cc(NC(=S)NCC)ncn1
Result: 32 nM

###

Target: Amine oxidase [flavin-containing] B (Homo sapiens)
Sequence (P27338 whole entry): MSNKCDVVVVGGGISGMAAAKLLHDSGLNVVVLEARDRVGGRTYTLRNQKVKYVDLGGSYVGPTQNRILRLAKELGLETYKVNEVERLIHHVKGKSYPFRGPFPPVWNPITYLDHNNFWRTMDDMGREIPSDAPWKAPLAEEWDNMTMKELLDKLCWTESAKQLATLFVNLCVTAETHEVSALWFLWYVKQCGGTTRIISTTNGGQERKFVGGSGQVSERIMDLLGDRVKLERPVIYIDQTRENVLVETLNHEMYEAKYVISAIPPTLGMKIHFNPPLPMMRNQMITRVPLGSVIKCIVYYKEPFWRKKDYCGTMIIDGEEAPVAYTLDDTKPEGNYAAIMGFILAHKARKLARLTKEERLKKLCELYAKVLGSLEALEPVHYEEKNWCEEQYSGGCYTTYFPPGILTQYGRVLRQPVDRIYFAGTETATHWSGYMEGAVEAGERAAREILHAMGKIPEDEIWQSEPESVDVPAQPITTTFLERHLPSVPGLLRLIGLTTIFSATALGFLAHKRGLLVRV
Test: Inhibition of recombinant human MAO-B expressed in baculovirus-infected BTI insect cells using p-tyramine as substrate incubated for 45 mins by fluorescence assay
Property Name: pIC50
pIC50 field: float, defined as -log10 of concentration (mol/L).

Q: What is its pIC50 for Amine oxidase [flavin-containing] B (Homo sapiens)? Entry: Cn1ccc2cc(C(=S)Nc3ccc(F)cc3)ccc21
Result: 7.55
